Target: acetylcholinesterase (AChE) (Electrophorus electricus, UniProt O42275)
Construct: purchased Sigma-Aldrich Co. (St. Louis, MO, USA)
Sequence (O42275 24-633): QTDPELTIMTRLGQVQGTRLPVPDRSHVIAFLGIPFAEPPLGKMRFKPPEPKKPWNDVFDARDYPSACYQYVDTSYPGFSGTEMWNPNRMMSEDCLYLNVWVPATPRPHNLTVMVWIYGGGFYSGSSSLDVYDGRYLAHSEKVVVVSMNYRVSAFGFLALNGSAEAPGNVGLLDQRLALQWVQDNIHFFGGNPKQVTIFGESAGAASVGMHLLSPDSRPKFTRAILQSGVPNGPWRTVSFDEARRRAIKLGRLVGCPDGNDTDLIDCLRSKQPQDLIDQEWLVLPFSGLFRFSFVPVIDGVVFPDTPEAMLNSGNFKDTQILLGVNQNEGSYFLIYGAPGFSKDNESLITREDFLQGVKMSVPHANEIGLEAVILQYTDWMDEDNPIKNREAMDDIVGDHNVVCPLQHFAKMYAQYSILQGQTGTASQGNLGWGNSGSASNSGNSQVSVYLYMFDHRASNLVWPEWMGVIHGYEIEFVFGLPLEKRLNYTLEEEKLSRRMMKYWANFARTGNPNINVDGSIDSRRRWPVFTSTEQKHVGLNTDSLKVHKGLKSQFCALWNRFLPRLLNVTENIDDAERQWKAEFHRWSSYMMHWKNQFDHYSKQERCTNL
Assay: AChE enzyme kinetics (Dixon plot and Lineweaver plot)
Format: biochemical
measured.parameter: Inhibition type Acetylcholinesterase

Cc1cc2c(c(C)c1CCO)C(=O)[C@@H](C)[C@H]2O ... mixed type
Cc1cc2c(c(C)c1CCO)C(=O)[C@H](C)C2 ... mixed type
Cc1cc2c(c(C)c1CCO[C@@H]1OC(CO)[C@@H](O)[C@H](O)C1O)C(=O)[C@H](C)C2 (stereo partly drawn) [Compound 14, (2R)-pteroside B] ... mixed type

###

In this section we review reported IC50 values for a set of compounds.
Molecular target: butyrylcholinesterase (BChE) (Equus caballus, UniProt P81908)
Construct: horse serum butyrylcholinesterase (BChE, EC3.1.1.8); purchased Sigma-Aldrich Co. (St. Louis, MO, USA); host or cells: horse serum
Sequence (P81908 whole entry): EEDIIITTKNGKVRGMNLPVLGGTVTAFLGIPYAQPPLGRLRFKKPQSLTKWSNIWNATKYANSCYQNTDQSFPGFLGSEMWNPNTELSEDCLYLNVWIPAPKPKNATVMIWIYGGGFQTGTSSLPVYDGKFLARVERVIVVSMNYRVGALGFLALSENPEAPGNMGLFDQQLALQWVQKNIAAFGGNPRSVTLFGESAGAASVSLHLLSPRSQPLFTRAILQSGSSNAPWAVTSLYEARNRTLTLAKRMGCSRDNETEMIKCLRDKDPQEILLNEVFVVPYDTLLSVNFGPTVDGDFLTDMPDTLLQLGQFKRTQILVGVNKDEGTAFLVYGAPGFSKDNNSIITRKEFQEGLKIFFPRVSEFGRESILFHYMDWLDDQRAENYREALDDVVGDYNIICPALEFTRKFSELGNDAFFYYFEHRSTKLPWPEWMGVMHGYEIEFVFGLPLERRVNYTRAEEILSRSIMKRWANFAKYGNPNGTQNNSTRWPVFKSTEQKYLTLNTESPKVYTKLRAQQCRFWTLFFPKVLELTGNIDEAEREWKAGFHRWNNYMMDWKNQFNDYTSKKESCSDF
Experiment: In vitro cholinesterase activity assay (Ellman), BChE
Type: biochemical
Conditions: concentrations up to 125 μM; Mean ± SEM; read-out: IC50 Butyrylcholine esterase Mean ± SEM
measured.parameter: IC50 (µM)

Cc1cc2c(c(C)c1CCO)C(=O)[C@H](C)C2 ... 48.1
Cc1cc2c(c(C)c1CCO)C(=O)C(C)(C)C2 ... 80.1
Cc1cc2c(c(C)c1CCO[C@@H]1OC(CO)[C@@H](O)[C@H](O)C1O)C(=O)[C@](C)(CO)C2 (stereo partly drawn) [Compound 12, (2S)-pteroside A] ... 19.4
Cc1cc2c(c(C)c1CCO)C(=O)[C@H](C)[C@H]2O ... 20.3
Cc1cc2c(c(C)c1CCO)C(=O)[C@@H](C)[C@H]2O ... 44.3
Cc1cc2c(c(C)c1CCO[C@@H]1OC(CO)[C@@H](O)C(O)C1O)C(=O)[C@](C)(O)C2 (single isomer, unassigned; (-)) [Compound 18, (−)-pteroside N] ... 7.39
Cc1c(CCO)c(CO)cc2c1C(=O)[C@@H](C)C2 ... 55.9

###

Target: butyrylcholinesterase (BChE) (Equus caballus)
Construct: horse serum butyrylcholinesterase (BChE, EC3.1.1.8)
Experiment: BChE enzyme kinetics (Dixon plot and Lineweaver plot)
pKi: −log10 of the molar value.
measured.parameter: pKi

Cc1cc2c(c(C)c1CCO)C(=O)[C@@H](C)[C@H]2O [Compound 8, (2S,3R)-pterosin C] ... 4.52
Cc1cc2c(c(C)c1CCO)C(=O)[C@H](C)[C@H]2O [Compound 7, (2R,3R)-pterosin C] ... 5.32
Cc1cc2c(c(C)c1CCO)C(=O)[C@H](C)C2 [Compound 4, (2R)-pterosin B] ... 4.27

###

Target: acetylcholinesterase (AChE) (Electrophorus electricus)
Construct: purchased Sigma-Aldrich Co. (St. Louis, MO, USA)
Assay: In vitro cholinesterase activity assay (Ellman), AChE
Type: biochemical
Settings: ratio of IC50 BChE/AChE
measured.parameter: SI: selectivity index (BChE/AChE)

Cc1cc2c(c(C)c1CCO[C@@H]1OC(CO)[C@@H](O)[C@H](O)C1O)C(=O)[C@H](C)[C@H]2O (stereo partly drawn) [Compound 16, (2R,3R)-pteroside C] ... 1.4
Cc1cc2c(c(C)c1CCO)C(=O)[C@@H](C)[C@H]2O [Compound 8, (2S,3R)-pterosin C] ... 3.5
Cc1c(CCO[C@@H]2OC(CO)[C@@H](O)[C@H](O)C2O)c(CO)cc2c1C(=O)[C@@H](C)C2 (stereo partly drawn) [Compound 19, (2S)-pteroside P] ... 0.57
Cc1cc2c(c(C)c1CCO[C@@H]1OC(CO)[C@@H](O)[C@H](O)C1O)C(=O)[C@@H](C)[C@H]2O (stereo partly drawn) [Compound 15, (2S,3R)-pteroside C] ... 1.4
Cc1cc2c(c(C)c1CCO)C(=O)[C@H](C)[C@H]2O [Compound 7, (2R,3R)-pterosin C] ... 0.89
Cc1cc2c(c(C)c1CCO[C@@H]1OC(CO)[C@@H](O)[C@H](O)C1O)C(=O)C(C)(C)[C@H]2O (stereo partly drawn) [Compound 17, (3S)-pteroside D] ... 0.70
Cc1cc2c(c(C)c1CCO[C@@H]1OC(CO)[C@@H](O)[C@H](O)C1O)C(=O)C(C)(C)C2 (stereo partly shown) [Compound 20, pteroside Z] ... 0.24
Cc1cc2c(c(C)c1CCO)C(=O)[C@](C)(COC1O[C@H](CO)[C@@H](O)[C@H](O)[C@H]1O)C2 (stereo partly drawn) [Compound 13, (2S)-pteroside A2] ... 3.0
Cc1cc2c(c(C)c1CCO)C(=O)C(C)(C)C2 [Compound 11, pterosin Z] ... 1.7
Cc1cc2c(c(C)c1CCO[C@@H]1OC(CO)[C@@H](O)[C@H](O)C1O)C(=O)[C@H](C)C2 (stereo partly drawn) [Compound 14, (2R)-pteroside B] ... 6.9
Cc1cc2c(c(C)c1CCO)C(=O)[C@H](C)C2 [Compound 4, (2R)-pterosin B] ... 3.0
CC(=O)C1(/C(C)=C\C2=CC(=O)C(C)C2)CC1 (stereo not shown) [Compound 2] ... 0.83
Cc1cc2c(c(C)c1CCO[C@@H]1OC(CO)[C@@H](O)[C@H](O)C1O)C(=O)[C@](C)(CO)C2 (stereo partly drawn) [Compound 12, (2S)-pteroside A] ... 0.17
Cc1c(CCO)c(CO)cc2c1C(=O)[C@@H](C)C2 [Compound 10, (2S)-pterosin P] ... 3.1
Cc1cc2c(c(C)c1CCO[C@@H]1OC(CO)[C@@H](O)C(O)C1O)C(=O)[C@](C)(O)C2 (single isomer, unassigned; (-)) [Compound 18, (−)-pteroside N] ... 1.7
Cc1cc2c(c(C)c1CCO)C(=O)[C@](C)(CO)C2 [Compound 3, (2S)-pterosin A] ... 1.2

###

Molecular target: BACE1 (Homo sapiens)
Sequence (P56817 46-501): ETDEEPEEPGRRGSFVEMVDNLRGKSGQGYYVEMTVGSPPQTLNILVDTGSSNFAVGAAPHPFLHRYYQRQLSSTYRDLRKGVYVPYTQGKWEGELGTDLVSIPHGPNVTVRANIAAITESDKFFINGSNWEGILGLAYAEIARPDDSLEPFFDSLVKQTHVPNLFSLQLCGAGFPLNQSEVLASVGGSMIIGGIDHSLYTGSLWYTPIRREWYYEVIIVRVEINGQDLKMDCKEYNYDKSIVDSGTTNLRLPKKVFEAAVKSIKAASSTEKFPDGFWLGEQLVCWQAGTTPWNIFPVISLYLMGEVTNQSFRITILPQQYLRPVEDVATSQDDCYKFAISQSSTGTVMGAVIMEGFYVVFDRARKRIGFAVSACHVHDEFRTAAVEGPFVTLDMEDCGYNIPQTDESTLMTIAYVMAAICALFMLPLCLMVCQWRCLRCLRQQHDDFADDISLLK
Just a reminder that ties go to No: only Ki strictly below 30 µM counts as Yes.

Cc1cc2c(c(C)c1CCO)C(=O)[C@H](C)C2 [Compound 4, (2R)-pterosin B] ... No
Cc1cc2c(c(C)c1CCO[C@@H]1OC(CO)[C@@H](O)[C@H](O)C1O)C(=O)[C@H](C)C2 (stereo partly drawn) [Compound 14, (2R)-pteroside B] ... No
Cc1cc2c(c(C)c1CCO[C@@H]1OC(CO)[C@@H](O)[C@H](O)C1O)C(=O)[C@H](C)[C@H]2O (stereo partly drawn) [Compound 16, (2R,3R)-pteroside C] ... Yes
Cc1cc2c(c(C)c1CCO)C(=O)[C@@H](C)[C@H]2O [Compound 8, (2S,3R)-pterosin C] ... No
CC(=O)C1(/C(C)=C\C2=CC(=O)C(C)C2)CC1 (stereo not shown) [Compound 2] ... Yes
Cc1cc2c(c(C)c1CCO[C@@H]1OC(CO)[C@@H](O)[C@H](O)C1O)C(=O)C(C)(C)[C@H]2O (stereo partly drawn) [Compound 17, (3S)-pteroside D] ... Yes
Cc1cc2c(c(C)c1CCO)C(=O)[C@H](C)[C@H]2O [Compound 7, (2R,3R)-pterosin C] ... Yes

###

Molecular target: butyrylcholinesterase (BChE) (Equus caballus)
Construct: horse serum butyrylcholinesterase (BChE, EC3.1.1.8); purchased Sigma-Aldrich Co. (St. Louis, MO, USA); host or cells: horse serum
Test: BChE enzyme kinetics (Dixon plot and Lineweaver plot)
Format: biochemical
measured.parameter: Inhibition type Butyrylcholinesterase

Cc1cc2c(c(C)c1CCO)C(=O)[C@H](C)[C@H]2O [Compound 7, (2R,3R)-pterosin C] ... mixed type
Cc1cc2c(c(C)c1CCO[C@@H]1OC(CO)[C@@H](O)[C@H](O)C1O)C(=O)[C@H](C)C2 (stereo partly drawn) [Compound 14, (2R)-pteroside B] ... mixed type
Cc1cc2c(c(C)c1CCO)C(=O)[C@H](C)C2 [Compound 4, (2R)-pterosin B] ... noncompetitive type
Cc1cc2c(c(C)c1CCO)C(=O)[C@@H](C)[C@H]2O [Compound 8, (2S,3R)-pterosin C] ... noncompetitive type

###

System: NIH3T3 cells
Assay: MTT cytotoxicity assay, normal cell line NIH3T3
Format: cell-based
Settings: NIH3T3 mouse embryo fibroblast, 48 hours incubation
In this section we review reported LD50 Normal cell NIH3T3 values for a set of molecules.
measured.parameter: LD50 Normal cell NIH3T3

Cc1cc2c(c(C)c1CCO[C@@H]1OC(CO)[C@@H](O)[C@H](O)C1O)C(=O)[C@@H](C)[C@H]2O (stereo partly drawn) [Compound 15, (2S,3R)-pteroside C] ... >5,000 μM
Cc1cc2c(c(C)c1CCO)C(=O)[C@](C)(COC1O[C@H](CO)[C@@H](O)[C@H](O)[C@H]1O)C2 (stereo partly drawn) [Compound 13, (2S)-pteroside A2] ... >5,000 μM
CC(=O)C1(/C(C)=C\C2=CC(=O)C(C)C2)CC1 (stereo not shown) ... 1,550 μM
Cc1cc2c(c(C)c1CCO[C@@H]1OC(CO)[C@@H](O)[C@H](O)C1O)C(=O)C(C)(C)[C@H]2O (stereo partly drawn) [Compound 17, (3S)-pteroside D] ... >5,000 μM

The measured values listed here are drawn from patent US12678413B2.
